System: MS2 coat protein
methodSummary: apparent Kd, MS2 coat protein; higher = weaker binding; RNA-MaP array; FMN 200 µM where present
assayContext: designed as: ON switch for flavin mononucleotide; no ligand
endpointLabel: apparent Kd (nM)
Report the value in nM with no unit label.

1. AAAACAUGAGGAUCACCCAUGUAAAGAACGGUUAAUAAAUGUGAGGAUAUACUAAAAUUUACGUAGUAGAAGGCACUGGGUACA: 20.8

Fill in the blank: the reported apparent Kd of GUGCUCGUGUAAGGAUAUGCAGCCGUUUCGGCUGCAGAAGGUACUAUAAUACAUGAGGAUCACCCAUGUCUCUAUUGUUUGGUG is ____.
120

GCCAUCGCAUGAGGAUAUGGACAGCUUUGCUGUCCAGAAGGCAUGUCAAUAGACAUGAGGAUCACCCAUGUAGUUAAGAUGGCA , same question.
771

Also UGGUACUAGGGAGGAUAUGGGAAGUUACAUGAGGAUCACCCAUGUUUAAGAAUGCCGAGAGGCAACUAGAAGGCCCUAGUACCU ?
31.6

----------
Tested on: MS2 coat protein
methodSummary: apparent Kd, MS2 coat protein; higher = weaker binding; RNA-MaP array; FMN 200 µM where present
assayContext: designed as: OFF switch for flavin mononucleotide; no ligand
This listing pairs sequences with measured apparent Kd.
Answer in nM, number only, no unit symbol.

A selection of reference data follows.
1. CUGAAUCGAGGAUAUUGUACUGCUGACAUGAGGAUCACCCAUGUAUGUUAACUCGGCCGUCGAGAAGGCGAACAUA: 27.6
2. GCUAGGCAUGUCAGGAUAUGCUGAACCUUGGUUCAGCAGAAGGGACAUGAGGAUCACCCAUGUGCCAACCUAGC: 57.4
3. AUUUCAUUCCUUCGACCAUUACCGAGAAGGGUCCACAUGAGGAUCACCCAUGUGGUCCUGAGCGGACAGGAUAUCGGAGUCGGG: 18.2
4. UAUAUUUAUGUAGGAUAUGGUAUAUAAAAUAUACCAGAAGGACAUGAGGAUCACCCAUGUAUGAAAUUCCAUAAUAAGCGUGUA: 12.2
5. GGUACUCAAAGAGUACUGAGUCGAACAUGAGGAUCACCCAUGUAGGAUAUGCGAGUUUUGAAUUUGCAGAAGGACAUUUUUAGC: 8.88
6. CGUAGUUGGUAAGGAUAUCCUACACUGUUCUGACCCGUGCAAGCUACAUGAGGAUCACCCAUGUGGGAGAAGGUGCGUCAACGC: 18.4

Next, consider the following sequence.
Quick one: apparent Kd of AAAAUGUCAGGAUAUUGUUAGUUUAGUUGUUUGUAUUAGUUCGAGAAGGGACAUGAGGAUCACCCAUGUUGAAA ?
33.8

----------
Reported values of apparent Kd for individual entries
System: MS2 coat protein
methodSummary: apparent Kd, MS2 coat protein; higher = weaker binding; RNA-MaP array; FMN 200 µM where present
assayContext: ligand present: flavin mononucleotide; designed as: OFF switch for flavin mononucleotide
# value in nM; strip the unit string

Examples with their reported apparent Kd follow.
1. CAGGAUAGAGGAUAUACAUAGAUACAGAUUCGUGUGAUCCUACAUGAGGAUCACCCAUGUAGAAGGCUAUCCUG: 15.9
2. GGAAGGUGAGGAUAUACAAUGACGGAAACGUCAGGUGAGAGACAUGAGGAUCACCCAUGUAGAAGGCACGGAGA: 730
3. AAAAUGUGAGGAUAUCCGAAGGCGUCUGAUAGACGAGGCUAGGAGAAGGCACAUGAGGAUCACCCAUGUAAAAA: 95.1
4. GCGUCAGAAUUAAUUGUGACAUACAGAAGGCAAUAGUUUAUUUCAGACAUGAGGAUCACCCAUGUUGAGGAUAUGUAUUUACUC: 7.82

What value of apparent Kd has been recorded for this entry: UAUAUAUAGGCAGGAUAUACAUGUAUAUAUAAUAUAUUAUAUAAUAUAACAUGAGGAUCACCCAUGUAGAAGGGCCAUAAUAUA
83.7

And for AAAUACAGAGGAUAUGUACGAAUUGACAUGAGGAUCACCCAUGUGACUUCGUGCACUUUGACAGAAGGCUGGGAAU ?
32.7

How about this sequence: AUUUUUAAGGUAGGAUAUAGUAUGAUGGUUUAAUUAGAAGGAUCUCACAUGAGGAUCACCCAUGUAAUAGGAUUACCCAUGUAU
33.3
